Test system: HepG2 cells
Assay remarks: Cytotoxicity by neutral red (NR) uptake
Type: cell-based, human
Test parameters: HepG2; 32 µg/mL; 24 h
Measurement kind: NR uptake (lysosomal activity), % of control

INSERT INTO results (compound, value_reported) VALUES
  ('CC[C@H]1OC(=O)[C@H](C)[C@@H](O[C@H]2C[C@@](C)(OC)[C@@H](O)[C@H](C)O2)[C@H](C)[C@@H](O[C@@H]2O[C@H](C)C[C@H](N(C)C)[C@H]2O)[C@](C)(O)C[C@@H](C)C(=O)[C@H](C)[C@@H](O)[C@]1(C)O [[ERY], erythromycin, reference compound]', '110.2 ± 9.546% (ns)'),
  ('CCCCCCCCCCCCCC[n+]1ccc2ccccc2c1.[Br-] [Compound 3e, 2-Tetradecylisoquinolin-2-ium bromide]', '12.77 ± 1.368% (****)');

// below: NR uptake (lysosomal activity), % of control requested for another compound
-- ask Give its NR uptake (lysosomal activity), % of control value. Item: CCCCCCCCCCCCCC[n+]1ccccc1.[Br-] [Compound 6e, 1-Tetradecylpyridin-1-ium bromide]
-- reply 12.93 ± 3.760% (****)

====

Recorded NR uptake (lysosomal activity), % of control for the following compounds
System: HepG2 cells
Assay remarks: Cytotoxicity by neutral red (NR) uptake
Assay type: cell-based, human
Test parameters: HepG2; 16 µg/mL; 24 h

INSERT INTO measurements (compound, value_reported) VALUES
  ('CC[C@H]1OC(=O)[C@H](C)[C@@H](O[C@H]2C[C@@](C)(OC)[C@@H](O)[C@H](C)O2)[C@H](C)[C@@H](O[C@@H]2O[C@H](C)C[C@H](N(C)C)[C@H]2O)[C@](C)(O)C[C@@H](C)C(=O)[C@H](C)[C@@H](O)[C@]1(C)O [[ERY], erythromycin, reference compound]', '107.1 ± 7.642% (ns)'),
  ('O=C(O)c1cn(C2CC2)c2cc(N3CCNCC3)c(F)cc2c1=O [[CIP], ciprofloxacin, reference compound]', '96.82 ± 5.237% (ns)');

-- ask Query NR uptake (lysosomal activity), % of control on HepG2 cells for CCCCCCCCCCCCCC[n+]1cccc2ccccc21.[Br-] [Compound 5e, 1-Tetradecylquinolin-1-ium bromide]
-- reply 12.06 ± 2.988% (****)

-- ask Query NR uptake (lysosomal activity), % of control on HepG2 cells for CCCCCCCCCCCCCC[P+](c1ccccc1)(c1ccccc1)c1ccccc1 [Compound 1e, Triphenyl(tetradecyl)phosphonium bromide]
-- reply 12.29 ± 3.775% (****)

-- ask Query NR uptake (lysosomal activity), % of control on HepG2 cells for CCCCCCCCCCCCCC[n+]1ccc2ccccc2c1.[Br-] [Compound 3e, 2-Tetradecylisoquinolin-2-ium bromide]
-- reply 12.68 ± 2.385% (****)

====

Test system: HepG2 cells
Assay remarks: Cytotoxicity by neutral red (NR) uptake
Assay type: cell-based, human
Test parameters: HepG2; 2 µg/mL; 24 h
Measurement kind: NR uptake (lysosomal activity), % of control

INSERT INTO assay_data (compound, tested_on, value_reported) VALUES
  ('CCCCCCCCCCCCCC[N+](CC)(CC)CC.[Br-]', 'HepG2 cells', '86.24 ± 1.502% (****)'),
  ('O=C(O)c1cn(C2CC2)c2cc(N3CCNCC3)c(F)cc2c1=O [[CIP], ciprofloxacin, reference compound]', 'HepG2 cells', '106.7 ± 11.16% (ns)'),
  ('CCCCCCCCCCCCCC[n+]1ccn(C)c1.[Br-]', 'HepG2 cells', '86.71 ± 4.103% (****)'),
  ('CCCCCCCCCCCCCC[n+]1ccc2ccccc2c1.[Br-] [Compound 3e, 2-Tetradecylisoquinolin-2-ium bromide]', 'HepG2 cells', '79.86 ± 9.893% (****)');

// below: NR uptake (lysosomal activity), % of control requested for another compound
-- ask Give its NR uptake (lysosomal activity), % of control value. Item: CCCCCCCCCCCCCC[n+]1cccc2ccccc21.[Br-] [Compound 5e, 1-Tetradecylquinolin-1-ium bromide]
-- reply 88.20 ± 3.101% (****)

====

Assay remarks: Chromatographic hydrophobicity index (CHI) by UHPLC
Type: physicochemical
Test parameters: LC/UV at pH 2.6; calculated from retention time with the calibration line
Recorded CHI for the following molecules
// print number alone

Illustrative cases are given below, each with its answer.
INSERT INTO assay_data (molecule, measurement_kind, value_reported) VALUES
  ('CCCCCCCCCCCCCC[n+]1ccc(C)cc1.[Br-]', 'CHI', 82.90),
  ('CCCCCC[n+]1ccn(C)c1.[Br-]', 'CHI', 29.35),
  ('CCCCCCCCCC[n+]1ccccc1.[Br-] [Compound 6c, 1-Decylpyridin-1-ium bromide]', 'CHI', 53.07);

-- ask Give its CHI value. Item: CCCCCCCCCCCC[n+]1cccc2ccccc21.[Br-] [Compound 5d, 1-Dodecylquinolin-1-ium bromide]
-- reply 74.21

====

Recorded NR uptake (lysosomal activity), % of control for the following compounds
System: HepG2 cells
Assay remarks: Cytotoxicity by neutral red (NR) uptake
Type: cell-based, human
Test parameters: HepG2; 16 µg/mL; 24 h

Illustrative cases are given below, each with its answer.
INSERT INTO assay_data (smiles_data, value_reported) VALUES
  ('CCCCCCCCCCCCCC[N+](CC)(CC)CC.[Br-]', '18.51 ± 2.592% (****)'),
  ('CCCCCCCCCCCCCC[n+]1ccn(C)c1.[Br-]', '12.85 ± 2.005% (****)');

// below: NR uptake (lysosomal activity), % of control requested for another compound
-- ask Give its NR uptake (lysosomal activity), % of control value. Item: `CCCCCCCCCCCCCC[n+]1ccc(C)cc1.[Br-]`
-- reply 14.45 ± 2.437% (****)

====

Assay remarks: Chromatographic hydrophobicity index (CHI) by UHPLC
Type: physicochemical
Test parameters: back-calculated from CHI at pH 2.6: CHI LogP = 0.047 × CHI + 0.36 × HBC − 1.10
Measurement kind: chromatographic logP
// print number alone

INSERT INTO assay_data (compound, measurement_kind, value_reported) VALUES
  ('CCCCCCCCCCCCCCCC[n+]1ccn(C)c1.[Br-] [Compound 2f]', 'chromatographic logP', 3.41),
  ('CCCCCCCC[n+]1cccc2ccccc21.[Br-] [Compound 5b, 1-Octylquinolin-1-ium bromide]', 'chromatographic logP', 1.21),
  ('CCCCCCCCCCCCCCCC[n+]1ccc(C)cc1.[Br-] [Compound 4f]', 'chromatographic logP', 3.45),
  ('CCCCCCCCCCCCCCCCCC[n+]1ccccc1.[Br-] [Compound 6g, 1-Octadecylpyridin-1-ium bromide]', 'chromatographic logP', 3.98),
  ('CCCCCCCCCCCC[n+]1cccc2ccccc21.[Br-] [Compound 5d, 1-Dodecylquinolin-1-ium bromide]', 'chromatographic logP', 2.39),
  ('CCCCCCCCCCCCCC[n+]1ccc2ccccc2c1.[Br-] [Compound 3e, 2-Tetradecylisoquinolin-2-ium bromide]', 'chromatographic logP', 3.04),
  ('CCCCCCCCCC[n+]1ccn(C)c1.[Br-] [Compound 2c]', 'chromatographic logP', 1.46),
  ('CCCCCCCCCCCCCC[P+](c1ccccc1)(c1ccccc1)c1ccccc1 [Compound 1e, Triphenyl(tetradecyl)phosphonium bromide]', 'chromatographic logP', 3.84);

// below: chromatographic logP requested for another compound
-- ask Give its chromatographic logP value. Item: CCCCCCCCCCCCCCCCCC[n+]1ccc(C)cc1.[Br-] [Compound 4g]
-- reply 4.03

====

Assay remarks: Chromatographic hydrophobicity index (CHI) by UHPLC
Type: physicochemical
Test parameters: LC/UV at pH 2.6; calculated from retention time with the calibration line
Could you please mark yes (1) for values of CHI below 90 and no (0) for values at or above it?

Consider the following illustrative entries.
INSERT INTO assay_data (molecule, cat) VALUES
  ('CCCCCCCCCCCCCCCC[n+]1cccc2ccccc21.[Br-] [Compound 5f, 1-Hexadecylquinolin-1-ium bromide]', 'no (0)'),
  ('CCCCCCCCCCCCCCCCCC[n+]1cccc2ccccc21.[Br-] [Compound 5g, 1-Octadecylquinolin-1-ium bromide]', 'no (0)'),
  ('CCCCCCCCCCCCCC[n+]1ccn(C)c1.[Br-]', 'yes (1)'),
  ('CCCCCCCCCCCC[n+]1ccc2ccccc2c1.[Br-] [Compound 3d, 2-Dodecylisoquinolin-2-ium bromide]', 'yes (1)');

-- ask Could you please tell me whether CHI recorded for CCCCCCCCCCCC[P+](c1ccccc1)(c1ccccc1)c1ccccc1 [Compound 1d, Dodecyltriphenylphosphonium bromide] is less than 90?
-- reply no (0)

-- ask Could you please tell me whether CHI recorded for `CCCCCCCCCCCCCCCCCC[n+]1ccc(C)cc1.[Br-]` is less than 90?
-- reply no (0)

-- ask Could you please tell me whether CHI recorded for CCCCCCCCCC[n+]1ccc(C)cc1.[Br-] [Compound 4c, 1-Decyl-4-methylpyridin-1-ium bromide] is less than 90?
-- reply yes (1)

-- ask Could you please tell me whether CHI recorded for CCCCCCCCCCCC[n+]1ccccc1.[Br-] [Compound 6d, 1-Dodecylpyridin-1-ium bromide] is less than 90?
-- reply yes (1)

-- ask Could you please tell me whether CHI recorded for CCCCCC[n+]1ccc2ccccc2c1.[Br-] [Compound 3a, 2-Hexylisoquinolin-2-ium bromide] is less than 90?
-- reply yes (1)

-- ask Could you please tell me whether CHI recorded for CCCCCCCCCC[n+]1ccc2ccccc2c1.[Br-] [Compound 3c, 2-Decylisoquinolin-2-ium bromide] is less than 90?
-- reply yes (1)

-- ask Could you please tell me whether CHI recorded for `CCCCCCCCCCCCCCCCCC[n+]1ccc2ccccc2c1` is less than 90?
-- reply no (0)

-- ask Could you please tell me whether CHI recorded for CCCCCC[n+]1ccccc1.[Br-] [Compound 6a, 1-Hexylpyridin-1-ium bromide] is less than 90?
-- reply yes (1)

-- ask Could you please tell me whether CHI recorded for CCCCCCCC[n+]1ccc(C)cc1.[Br-] [Compound 4b, 4-Methyl-1-octylpyridin-1-ium bromide] is less than 90?
-- reply yes (1)
